# credit: PubChem BioAssay AID1159580

Measured normalized growth, listed per entry.
- Method Notes: chemical genetic growth profiling, strain panel (AID 1159580);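 also: tested at 20 µM; growth read once vehicle control cultures reached saturation at 30 °C; 1 = growth at the plate median or of vehicle wells; lower values mean less growth of the strain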
- Condition Details: S. cerevisiae deletion strains, growth OD, locus YJL092W, strain hpr5, active compounds read low
Among all 5,500 compounds or so, about 2,000 (36%) were called active. Not shown: some 18% with an inconclusive outcome. Some of the results follow.
Parameter Measured: normalized growth

>>> print(df.to_string())
                                   molecule  observed_measurement
0  CC(CN(C)C)CN1c2ccccc2CCc2ccccc21 (centres undefined)                 0.936
1              CC(=O)N=c1sc(S(N)(=O)=O)nn1C                  1.02
2              C[C@H](N)[C@H](O)c1cccc(O)c1                  1.01
3                CNCCCN1c2ccccc2CCc2ccccc21                  1.01
